Give measured IC50 for each item. Keep answers brief.
Test Target: USP25 (USP25-His6, Boston Biochem E-546) (Homo sapiens)
Construct: His6; purchased Boston Biochem E-546
Experimental Details: Ubiquitin-Rhodamine 110 Assay for USP25 Activity, Example A-2
Type: biochemical
Condition Notes: Ubiquitin-Rhodamine 110 assay, Example A-2; read-out: USP25 A-2 IC50 range

>>> recorded_measurement("Cc1cc(C)n2ncc(C(=O)N[C@H]3COc4cc(N5CCNCC5)ccc4C3)c2n1 [Example 463]")
"> 2 µM"
>>> recorded_measurement("Cc1ccc2c(N)c(C(=O)N[C@H]3COc4cc(N5CC6CCC(C5)N6)c(F)cc4C3)sc2n1 [Example 104]")
"0.001 to 0.05 µM"

Now for the compound whose IC50 we want.
[in] Recorded IC50 for Cc1ccc2c(N)c(C(=O)N[C@@H]3COc4cc(N5CCNCC5)cc(F)c4C3)sc2n1 [Example 10-5] , please?
[out] > 2 µM

---

Test Target: USP28 (USP28-5(1-1077)-TEV-6*His; LifeSensors) (Homo sapiens, UniProt Q96RU2)
Construct: construct USP28 (USP28-5(1-1077)-TEV-6*His; LifeSensors); TEV cleavage site (C); 6xHis (C); purchased LifeSensors
Sequence (Q96RU2 whole entry): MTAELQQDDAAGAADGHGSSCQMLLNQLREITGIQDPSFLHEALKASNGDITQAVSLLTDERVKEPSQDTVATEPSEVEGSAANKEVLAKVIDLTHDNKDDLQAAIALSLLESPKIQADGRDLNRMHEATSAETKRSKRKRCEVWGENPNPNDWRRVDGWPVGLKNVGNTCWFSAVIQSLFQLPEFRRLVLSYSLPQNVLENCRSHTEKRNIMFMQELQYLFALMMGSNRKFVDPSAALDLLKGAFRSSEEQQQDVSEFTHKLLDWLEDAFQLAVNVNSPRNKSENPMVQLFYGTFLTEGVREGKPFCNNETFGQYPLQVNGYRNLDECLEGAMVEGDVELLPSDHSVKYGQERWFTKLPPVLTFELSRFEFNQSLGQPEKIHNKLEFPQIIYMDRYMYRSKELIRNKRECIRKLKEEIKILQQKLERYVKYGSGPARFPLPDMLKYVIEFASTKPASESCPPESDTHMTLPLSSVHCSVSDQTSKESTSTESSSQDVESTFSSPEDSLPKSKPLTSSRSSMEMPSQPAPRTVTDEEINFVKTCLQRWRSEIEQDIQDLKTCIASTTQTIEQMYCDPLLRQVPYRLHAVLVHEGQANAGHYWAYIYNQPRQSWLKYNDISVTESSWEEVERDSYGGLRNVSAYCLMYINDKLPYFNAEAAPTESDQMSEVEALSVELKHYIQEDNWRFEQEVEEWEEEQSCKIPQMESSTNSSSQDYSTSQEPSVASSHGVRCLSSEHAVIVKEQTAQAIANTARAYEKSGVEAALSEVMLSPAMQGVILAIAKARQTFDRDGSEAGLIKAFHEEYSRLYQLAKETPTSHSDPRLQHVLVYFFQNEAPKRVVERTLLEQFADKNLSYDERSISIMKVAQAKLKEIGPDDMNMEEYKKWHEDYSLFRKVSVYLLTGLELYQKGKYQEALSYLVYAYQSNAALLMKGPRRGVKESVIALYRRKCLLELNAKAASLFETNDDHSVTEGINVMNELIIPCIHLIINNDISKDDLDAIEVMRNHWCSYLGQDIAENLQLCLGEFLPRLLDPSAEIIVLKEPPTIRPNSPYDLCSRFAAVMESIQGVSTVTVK
Experimental Details: Ubiquitin-Rhodamine 110 Assay for USP28 Activity, Example A-1(b)
Format: biochemical
Condition Notes: Ub-Rh110 assay, Example A-1(b)
Measured Metric: USP28 A-1(b) IC50 range

The cases that follow already have their USP28 A-1(b) IC50 range on record.
>>> recorded_measurement("Cc1nc2sc(C(=O)N[C@H]3COc4cc(N5CCNCC5)ccc4C3)c(N)c2cc1F (single isomer, unassigned)")
"+++ (0.05-0.2 μM)"
>>> recorded_measurement("Nc1c(C(=O)N[C@H]2COc3cc(N4CC5CCC(C4)N5)ccc3C2)sc2ncc(F)cc12 (single isomer, unassigned)")
"++ (0.2-2 μM)"
>>> recorded_measurement("Cc1cc(C)c2c(N)c(C(=O)N[C@H]3COc4cc(N5CC6CNCC(C5)O6)ccc4C3)sc2n1")
"+++ (0.05-0.2 μM)"
>>> recorded_measurement("Cc1ccc2c(N)c(C(=O)N[C@@H]3COc4cc(N5CCNCC5)c(OC(F)(F)F)cc4C3)sc2n1 (single isomer, unassigned)")
"++ (0.2-2 μM)"

List reported USP28 A-1(b) IC50 range for each of these molecules:
1. Cc1ccc2c(N)c(C(=O)N[C@H]3COc4cc(N5CCC[C@](N)(C(F)(F)F)C5)ccc4C3)sc2n1 (single isomer, unassigned)
2. Cc1nc2sc(C(=O)N[C@H]3COc4cc(N5CC6CCCC(C5)N6)ccc4C3)c(N)c2s1

[out]
["+++ (0.05-0.2 μM)", "++ (0.2-2 μM)"]

Please look at the items below and tell me USP28 A-1(b) IC50 range for each one, in order.
1. Nc1c(C(=O)N[C@@H]2COc3cc(N4CC5CCC(C4)N5)ccc3C2)sc2ncc(F)cc12 (single isomer, unassigned)
2. Cc1cnc2c(N)c(C(=O)N[C@H]3COc4cc(N5CC6CC(C5)N6)ccc4C3)sc2n1
3. Cc1ccc2c(N)c(C(=O)N[C@@H]3COc4cc(N5CC6CCC(C5)N6)cc(F)c4C3)sc2n1 (single isomer, unassigned)
4. Cc1nc2sc(C(=O)N[C@@H]3COc4cc(N5CCNCC5)ccc4C3)c(N)c2s1
5. COc1nc2sc(C(=O)N[C@H]3COc4cc(N5CCNCC5)ccc4C3)c(N)c2cc1F
6. Cc1ccc2c(N)c(C(=O)N[C@H]3COc4cc(N5CC6CCC(C5)N6)cc(F)c4C3)sc2n1 (single isomer, unassigned)

[out]
1. + (>2 μM)
2. ++ (0.2-2 μM)
3. + (>2 μM)
4. + (>2 μM)
5. ++ (0.2-2 μM)
6. +++ (0.05-0.2 μM)

---

Test Target: USP25 (USP25-His6, Boston Biochem E-546) (Homo sapiens)
Construct: His6; purchased Boston Biochem E-546
Experimental Details: Ubiquitin-Rhodamine 110 Assay for USP25 Activity, Example A-2
Format: biochemical
Condition Notes: Ubiquitin-Rhodamine 110 assay, Example A-2; read-out: USP25 A-2 IC50 range
pIC50: −log10 of the molar value.
Hi there, I'd appreciate the recorded pIC50 for every entry that follows.

>>> recorded_measurement("Cc1ccc2c(N)c(C(=O)N[C@H]3CCc4nc(N5C[C@H](N)[C@H](C(F)F)C5)ccc4C3)sc2n1")
"5.70 to 6.70"
>>> recorded_measurement("C[C@@H](Nc1ccc(C(=O)N[C@H]2COc3cc(N4CCNCC4)ccc3C2)cn1)c1ccccc1")
"< 5.70"
>>> recorded_measurement("CO[C@@H]1[C@@H](N)CN(c2ccc3c(c2)OC[C@H](NC(=O)c2sc4nc(C)ccc4c2N)C3)[C@H]1C")
"6.70 to 7.30"

Batch: pIC50 for all items listed.
1. Cc1ccc2c(N)c(C(=O)N[C@H]3CCc4nc(N5CC6CC(C5)N6)ccc4C3)sc2n1
2. CO[C@H]1CN(c2ccc3c(n2)CC[C@H](NC(=O)c2sc4nc(C)cc(C)c4c2N)C3)C[C@@H]1NC(C)=O
3. Cc1ccc2c(N)c(C(=O)NC3COc4cc(N5CCNCC5)ccc4C3C)sc2n1 (single isomer, unassigned)
4. Cc1ccc2c(N)c(C(=O)N[C@H]3CCc4nc(N5CC[C@H]6CNC[C@H]65)ccc4C3)sc2n1
5. Cc1ccc2c(N)c(C(=O)N[C@@H]3Cc4ccc(N5CCNCC5)nc4C4(CC4)C3)sc2n1 (single isomer, unassigned)

[out]
["5.70 to 6.70", "< 5.70", "< 5.70", "5.70 to 6.70", "< 5.70"]

---

Test Target: USP25 (USP25-His6, Boston Biochem E-546) (Homo sapiens)
Construct: His6; purchased Boston Biochem E-546
Sequence (Q9UHP3 1-1055): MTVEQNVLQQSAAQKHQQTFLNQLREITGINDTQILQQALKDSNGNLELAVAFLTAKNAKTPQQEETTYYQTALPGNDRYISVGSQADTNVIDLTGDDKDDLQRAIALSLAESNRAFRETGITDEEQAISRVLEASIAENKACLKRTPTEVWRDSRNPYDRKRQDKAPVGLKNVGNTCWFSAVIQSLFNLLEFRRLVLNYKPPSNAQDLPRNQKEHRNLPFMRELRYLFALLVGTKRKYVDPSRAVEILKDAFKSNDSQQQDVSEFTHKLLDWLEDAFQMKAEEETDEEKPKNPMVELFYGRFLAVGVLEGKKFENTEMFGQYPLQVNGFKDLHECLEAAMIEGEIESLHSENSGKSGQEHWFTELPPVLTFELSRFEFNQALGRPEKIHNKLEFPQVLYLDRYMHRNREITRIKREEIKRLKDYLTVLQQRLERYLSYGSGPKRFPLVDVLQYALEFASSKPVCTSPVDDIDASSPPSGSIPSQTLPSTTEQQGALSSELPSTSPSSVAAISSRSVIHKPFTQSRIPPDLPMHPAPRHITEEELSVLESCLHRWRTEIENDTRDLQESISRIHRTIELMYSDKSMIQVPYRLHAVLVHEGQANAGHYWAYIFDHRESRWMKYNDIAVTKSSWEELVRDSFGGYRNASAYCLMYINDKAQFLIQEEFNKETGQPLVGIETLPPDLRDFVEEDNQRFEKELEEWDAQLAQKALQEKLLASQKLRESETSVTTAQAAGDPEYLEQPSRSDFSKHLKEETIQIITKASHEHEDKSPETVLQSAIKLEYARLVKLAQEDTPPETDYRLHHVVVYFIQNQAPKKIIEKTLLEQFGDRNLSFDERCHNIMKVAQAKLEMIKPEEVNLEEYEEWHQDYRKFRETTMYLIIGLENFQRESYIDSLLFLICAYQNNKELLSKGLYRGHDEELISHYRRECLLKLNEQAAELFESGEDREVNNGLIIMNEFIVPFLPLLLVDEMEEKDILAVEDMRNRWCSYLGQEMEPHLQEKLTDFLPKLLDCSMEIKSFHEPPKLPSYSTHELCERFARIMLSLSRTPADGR
Experimental Details: Ubiquitin-Rhodamine 110 Assay for USP25 Activity, Example A-2
Format: biochemical
Condition Notes: Ubiquitin-Rhodamine 110 assay, Example A-2; read-out: USP25 A-2 IC50 range
Measured Metric: IC50

>>> recorded_measurement("Cc1cnc2c(N)c(C(=O)N[C@H]3COc4c(C#N)c(N5CCNCC5)cc(F)c4C3)sc2n1")
"200 to 2000 nM"
>>> recorded_measurement("Cc1ccc2c(N)c(C(=O)N[C@H]3COc4cc(N5C[C@@H]6CCN[C@@H]6C5)ccc4C3)sc2n1")
"200 to 2000 nM"
>>> recorded_measurement("Cc1ccc2c(N)c(C(=O)N[C@@H]3CCc4c(ccc(N5CC6CNCC(C5)O6)c4F)C3)sc2n1")
"> 2000 nM"

Attention now shifts to the item below.
[in] // lookup IC50 for `COC[C@@H]1CN(c2ccc3c(n2)CC[C@H](NC(=O)c2sc4nc(C)cc(C)c4c2N)C3)C[C@@H]1N`
[out] > 2000 nM
